# Test system: SK-MEL-5 melanoma
# test: NCI tumour cell line growth inhibition, 48 h
metric.name: TGI (µM)

> print(dat)
                                   molecule  reported.relation  measurement
1  O=C(/C=C/c1cn(-c2ccccc2)nc1-c1ccc([N+](=O)[O-])cc1)c1ccc(Cl)cc1                  >          100
2  Cc1ccc(/C=C2\CN(C)CC3C2=NC(=S)NC3c2ccc(C)cc2)cc1 (stereo unspecified)                  >          100
3                  COc1cc(O)c(C(C)=O)c(O)c1                  >          100
4  CN(C)CCCC1(c2ccc(F)cc2)OCc2cc(-c3cncc4ccccc34)ccc21 (stereo unspecified)                  =          3.2
5       O=c1c2c(nc3n1CCC3)sc1c(O)c(Br)ccc12                  =         30.4
6  Oc1[nH]c2ccccc2c1/C=c1/cc2c(c(-c3ccc(C(F)(F)F)cc3)n1)=Nc1ccccc1-2                  =         19.3
